B1: CPEB3 Ribozyme (parent)
chain: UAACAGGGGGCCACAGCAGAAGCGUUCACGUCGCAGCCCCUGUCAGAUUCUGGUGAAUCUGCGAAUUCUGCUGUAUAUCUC

variants of: B1; assay: self-cleavage, relative activity (ratio to wild type); higher = more cleavage; in vitro, sequencing
Below, each of the variants is paired with its reported self-cleavage value.

VARIANT LABEL | self-cleavage
U31C C81U | 1.14
A21G A77C | 0.63
G42U | 0.31
U49C A56G | 1.04
U51G U80A | 1
A3U U80A | 1.23
A3G C27A | 0.45
C11U A15C | 0.5
A15G C38U | 0.81
C14A C17G | 0.44
G8U U78A | 0.21
C27A A56U | 0.09
C29U U72A | 0.42
A28G G33U | 0.16
A65U U80G | 0.21
U67A A77G | 0.57
C4U A56G | 1.06
A3U A75G | 1.06
A18U C81G | 0.27
A47U G63A | 0.29
U25A U67A | 0.46
A35G U43C | 1.22
G36C U51C | 0.39
G6C U26A | 0.47
C11G A56U | 0.28
C14U A35G | 1.38
U67C U69G | 0.45
U54C U80A | 1.17
U51A U74C | 1.21
C37U A56U | 0.47
A21G C71U | 0.32
C14A U67C | 0.14
G8U G9A | 0.33
A64G A75G | 0.71
A13G U54C | 0.92
A13U A75G | 1.25
A45U A64U | 0.27
A35U U66C | 0.25
U31A G61C | 0.24
A47G U49C | 0.33
G36U A65G | 0.39
G55A U72A | 0.53
C12A U51A | 1.06
A28C U78A | 0.64
G10C A18U | 0.12
G33A A77U | 0.23
A5U U25C | 0.41
C17G A35G | 1.04
G9C A28G | 0.07
A15U G36C | 0.13
U31A U60C | 0.25
G6A U60C | 0.27
A45U A56G | 0.27
G36U C59U | 0.16
U69A A77G | 0.72
A20C U80C | 0.54
A45C U51C | 0.32
